Overview of recorded apparent KD of MS2 coat protein for various sequences
- Test system: MS2 coat protein
- experiment summary: apparent KD of MS2 coat protein; higher = weaker reporter binding
- particulars: Eterna round: R107; input ligand: theophylline 20 uM

[
  {
    "sequence code": "GGGUGGUAGGCGGCCGCCACUGAUUUUCAUUCCUGGAUGACAUGAGGAUCACCCAUGUUUACGGGCAGGACCGGGCCUGCUGUGG [aaaW]",
    "apparent KD of MS2 coat protein": "68.4 nM"
  },
  {
    "sequence code": "AUAUGAUCAUAUGAUACCAGAAAUGGUAUUCCUUUCUUUCUUACAUGAGGAUCACCCAUGUUCCCUUGGCAGCAUAUGAUCAUAU [ETHB #1]",
    "apparent KD of MS2 coat protein": "210 nM"
  },
  {
    "sequence code": "AAUAAGCAGCUGCAAGGUGAUCCUGCAGAUACCAGCUAGGAAACUAGCCCUUGGCAGCUGCAACAUGAGGAUCACCCAUGUAAUA [(T)'-(M)'-(T1)-(T2)-(M1)-(M2)_Design6]",
    "apparent KD of MS2 coat protein": "61.7 nM"
  },
  {
    "sequence code": "UUUAAAAUCAGAAGGAGCGUGAUAAACAUGAGGAUCACCCAUGUCGAAAAUUUAAUAUAAUCACAGGUAGGUCGCUGUAAUAUUU [Same State - Ariginine B]",
    "apparent KD of MS2 coat protein": "18.6 nM"
  },
  {
    "sequence code": "UCGUAUGCGGCGGCCGCCACUCGCGGAUAACGAGAGCUUAACAUGAGGAUCACCCAUGUGUCAUGGAGGACCGGGCCCAUUCACA [popmullin]",
    "apparent KD of MS2 coat protein": "40.2 nM"
  },
  {
    "sequence code": "UUAUGCAGGUCGGCCGCCACUACACACAUGAGGAUCACCCAUGUAGUUACUGGGUGAAGUGGCAGUAGGACCGGGACCCGCACAC [Brourdmod22]",
    "apparent KD of MS2 coat protein": "561 nM"
  }
]

###

Overview of recorded apparent KD of MS2 coat protein for various sequences
- Test system: MS2 coat protein
- experiment summary: apparent KD of MS2 coat protein; designed switch direction (-1 OFF switch, 1 ON switch): 1; higher = weaker reporter binding
- particulars: Eterna round: R95; input ligand: microRNA oligo, concentration not stated

[
  {
    "sequence code": "AGUCCAGCAUAAGCUGGACAAAAGCAUGUACAUGAGGAUCACCCAUGUCAUGUACAAGCUUUUUGCUCGUCUUAAUA [Mat - hsa-mir-208a - Mod of JL - D36] (puzzle: Sensor for hsa-mir-208a)",
    "unit abbrev": "nM",
    "apparent KD of MS2 coat protein": 19.8
  },
  {
    "sequence code": "GAGAGAGGAAGCGAGGAUAUCGUGUUGAGUACAUGAGGAUCACCCAUGUUGUAGGUAGAGGUAGGCGAGAAGGCGCAGGAGAGGU [JR_SS2_Sub098] (puzzle: Same State 2)",
    "unit abbrev": "nM",
    "apparent KD of MS2 coat protein": 48.8
  },
  {
    "sequence code": "GUGCAACCGUGUGAGGAUAUCGGUGAACAAACAUGAGGAUCACCCAUGUCCGAAGCUCGGUUCUCCGAGAAGGCGCACAGUUGCA [Same State 2 - Mod of Erisin v.3] (puzzle: Same State 2)",
    "unit abbrev": "nM",
    "apparent KD of MS2 coat protein": 105
  },
  {
    "sequence code": "UUUAUACAUGAGGAUCACCCAUGUCAACAAAGUCGAGGAUAUGGGCAUAUUAUCUUAUUUCCAGAAGGCGAAUUCU [salish99_ss1_r3_090] (puzzle: Same State 1)",
    "unit abbrev": "nM",
    "apparent KD of MS2 coat protein": 158
  },
  {
    "sequence code": "AGUCCUGAAAAGAAAAUACAGAGAGAUGUACAUGAGGAUCACCCAUGUCAUGUACAAGUUCUAUGCUCGUCAUAUAA [Sensorship 22 - Jieux - Sensor for hsa-mir-208a] (puzzle: Sensor for hsa-mir-208a)",
    "unit abbrev": "nM",
    "apparent KD of MS2 coat protein": 106
  },
  {
    "sequence code": "GAGCGCUGUCGAGAGGAUAUGCGGUGAUGGACAUGAGGAUCACCCAUGUUAGCGAUAGCAUUACGGUAGAAGGCUCUACAGCUGC [Mat - Same State 2 - Mod of UCT - D87] (puzzle: Same State 2)",
    "unit abbrev": "nM",
    "apparent KD of MS2 coat protein": 22.3
  },
  {
    "sequence code": "GAGAGACAUGAGGAUCACCCAUGUAGGAGAAGACAAGGAUAUGUAGGAGAAGGAGAAGGAACAGAAGGUGUGGGAG [JR_SS1_Sub051] (puzzle: Same State 1)",
    "unit abbrev": "nM",
    "apparent KD of MS2 coat protein": 96.6
  },
  {
    "sequence code": "ACGUGGAUAUCACAGGAUAUACUCACAACUACAUGAGGAUCACCCAUGUAGCGGUAUUCCGGUGCGUAGAAGGGUGAUGGACCAC [Same State 2 - Mod of Artece v.3] (puzzle: Same State 2)",
    "unit abbrev": "nM",
    "apparent KD of MS2 coat protein": 12
  },
  {
    "sequence code": "UGUCCAGCCUGAGCUGGACAAAAGCAUGUACAUGAGGAUCACCCAUGUUCAUGUACAAGCUUUUUGCUCGUCUUAAA [salish99_208a_r3_030] (puzzle: Sensor for hsa-mir-208a)",
    "unit abbrev": "nM",
    "apparent KD of MS2 coat protein": 14.7
  },
  {
    "sequence code": "GUUAAACAUGAGGAUCACCCAUGUAAUAUAAUGGGAGGAUAUCUGAAUUAAUUAAAUUAAGGAGAAGGCCUAUAUG [Mat - Same State 1 - Mod of Eli - D53] (puzzle: Same State 1)",
    "unit abbrev": "nM",
    "apparent KD of MS2 coat protein": 210
  },
  {
    "sequence code": "AAGAAUCUAUCUCAGGAUAUCAUGUCAAAGACAUGAGGAUCACCCAUGUACCAGGAAACUGGUUAUGAGAAGGGAGAUAGAUUCA [Mat - Same State 2 - Mod - D31] (puzzle: Same State 2)",
    "unit abbrev": "nM",
    "apparent KD of MS2 coat protein": 118
  },
  {
    "sequence code": "GUAGGACAUGAGGAUCACCCAUGUAGGAGGGAACGAGGAUAUGUGAUUAGCGAGGAGAGGACAGAAGGCGUGGUAG [JR_SS1_Sub025] (puzzle: Same State 1)",
    "unit abbrev": "nM",
    "apparent KD of MS2 coat protein": 18.3
  },
  {
    "sequence code": "AUAACCCGUGCUAAGGAUAUGCGUACUCCUACAUGAGGAUCACCCAUGUCCCGCCGAAAAGGAAGGCAGAAGGUAGCACGGGCCG [Lasoleri] (puzzle: Same State 2)",
    "unit abbrev": "nM",
    "apparent KD of MS2 coat protein": 84.9
  },
  {
    "sequence code": "GAGUGACAUGAGGAUCACCCAUGUAGAAUAGAACAAGGAUAUGUGGAAGGCGGAGGAGAGACAGAAGGUGUUGAAG [JR_SS1_Sub057] (puzzle: Same State 1)",
    "unit abbrev": "nM",
    "apparent KD of MS2 coat protein": 46
  },
  {
    "sequence code": "AGUCCAGCCUGAGCUGGACAAAAGCAUGUACAUGAGGAUCACCCAUGUUCAUGUACAAGCUUUUUGCUCGUCUUAGC [salish99_208a_r3_063] (puzzle: Sensor for hsa-mir-208a)",
    "unit abbrev": "nM",
    "apparent KD of MS2 coat protein": 14.6
  },
  {
    "sequence code": "AGAGAACAUGAGGAUCACCCAUGUAAGAGAAGUGUAGGAUAUGUGAGGAGCAGAGGAGGAACAGAAGGACAUGGAG [JR_SS!_Sub072] (puzzle: Same State 1)",
    "unit abbrev": "nM",
    "apparent KD of MS2 coat protein": 35.3
  },
  {
    "sequence code": "ACCCAAAGUAUAUGGGAACAGGCUUUUUAACAUGAGGAUCACCCAUGUACUCGUCUUAUAAGCAGUCGAAAGACUGC [Sensor 100 - 2] (puzzle: Sensor for hsa-mir-208a)",
    "unit abbrev": "nM",
    "apparent KD of MS2 coat protein": 18
  },
  {
    "sequence code": "AACAAUCUAUCUGAGGAUAUCUUGAAAUAAACAUGAGGAUCACCCAUGUGCAGGAAAACUGCAUAUGAGAAGGCAGAUAGAUUGA [salish99_ss2_r3_028] (puzzle: Same State 2)",
    "unit abbrev": "nM",
    "apparent KD of MS2 coat protein": 124
  },
  {
    "sequence code": "AGAAGACAUGAGGAUCACCCAUGUAUGAAAAGUACAGGAUAUCAUGAGCUAAGGUGCGCAUGAGAAGGGUGAAAAU [Aatle] (puzzle: Same State 1)",
    "unit abbrev": "nM",
    "apparent KD of MS2 coat protein": 166
  },
  {
    "sequence code": "UCCGCUAUCUAGAAGGAUAUGCGUAUAUAAACAUGAGGAUCACCCAUGUACCGGCGAAAACCGGUGCAGAAGGUUUAGCUAGUGA [Rediin] (puzzle: Same State 2)",
    "unit abbrev": "nM",
    "apparent KD of MS2 coat protein": 273
  }
]
